Target: SARS-CoV-2 spike (S) protein (SARS-CoV-2), P0DTC2
Details: remark: other sources report otherwise
MEASUREMENT_TYPE: kon (M⁻¹ s⁻¹)
Report only the number, with the unit M⁻¹ s⁻¹ understood.

Check out these entries, answers already filled in.
{"columns": ["BINDER", "MEASUREMENT_TYPE", "VALUE"],
 "data": [
  ["antibody 279 (antibody, V domains shown) VH: EVQLLESGGGLVQPGGSLRLSCAASGFTFSSYAMSWVRQAPGKGLEWVSTISGSGGNTYYADSVKGRFTISRDNSKNTLYLQMNSLRAEDTAVYYCAKDLFQGLYYGSGEFDYWGQGTLVTVSS VL: QSALTQPASVSGSPGQSITISCTGTSSDVGAYNYVSWYQQHPGKAPKLMIYGVSNRPSGVSNRFSGSKSGNTASLTISGLQAEDEADYYCSSYTSSSTRVFGTGTKVTVL", "kon", 37300],
  ["antibody 304 (antibody, V domains shown) VH: EVQLLESGGGLVQPGGSLRLSCAASGFTFSTYAMSWVRQAPGKGLEWVSAISGSGGSTYYADSVKGRFTISRDNSKNTLYLQMNSLRAEDTAVYYCASGYSPDYWGQGTLVTVSS VL: AIQMTQSPSSLSASVGDRVTITCRASQGIRNDLGWYQQKPGKAPKLLIYAASSLQSGVPSRFSGSGSGTDFTLTISSLQPEDFATYYCLQDYNYPRTFGQGTKVEIK", "kon", 87300],
  ["antibody 322 (antibody, V domains shown) VH: EVQLVESGGGLVQPGGSLRLSCAASGFTFSSYWMSWVRQAPGKGLEWVANIKQDGSEKYYVDSVKGRFTISRDNAKNSLYLQMNSLRAEDTAVYYCARDEDVAAALDYWGQGTLVTVSS VL: SYVLTQPPSVSVAPGKTARITCGGNNIGSKSVHWYQQKPGQAPVLVIYYDSDRPSGIPERFSGSNSGNTATLTISRVEAGDEADYYCQVWDSSSDHPERVFGGGTKLTVL", "kon", 19000]
]}

I'd like to know its kon. The binder in question is antibody 269 (antibody, V domains shown) VH: QLQLQESGPGLVKPSETLSLTCTVSGGSISSSSYYWGWIRQPPGKGLEWIGNIYYSGSTYYNPSLKSRVTISVDTSKNQFSLKLSSVTAADTAVYYCAGEELDIVATIYSSRYYYYGMDVWGQGTTVTVSS VL: QSALTQPASVSGSPGQSITISCTGTSSDVGGYNYVSWYQQHPGKAPKLMIYEVSNRPSGVSNRFSGSKSGNTASLTISGLQAEDEADYYCSSYTSTSTLVFGGGTKLTVL
60900
